test: Rat single-dose IV and oral pharmacokinetics; assay type: in vivo; settings: male, Sprague Dawley, plasma, 5 mg/kg IV, read-out: Vss
PROPERTY: Vd (L/kg)
Could you give me the number in L/kg? Just the number is fine.

Any idea what Vd was measured for CSc1ccc(OCc2ncc([N+](=O)[O-])n2C)cc1 ?
4.69

====

experiment: Rat 28-day toxicokinetics; assay type: in vivo; details: male, Sprague Dawley (Crl:CD (SD)IGS BR), plasma, po, 50 mg/kg/day, Day 28, male
Can you tell me Cmax for the items I'm about to list?
Could you give me the number in ng/mL? Just the number is fine.

Any idea what Cmax was measured for CSc1ccc(OCc2ncc([N+](=O)[O-])n2C)cc1 [Fexinidazole] ?
133

Any idea what Cmax was measured for Cn1c([N+](=O)[O-])cnc1COc1ccc(S(C)(=O)=O)cc1 [Fexinidazole sulfone] ?
7750

Any idea what Cmax was measured for Cn1c([N+](=O)[O-])cnc1COc1ccc([S+](C)[O-])cc1 (stereo not drawn) [Fexinidazole sulfoxide] ?
4530
